tested system: CDK15/Cyclin Y (Homo sapiens, UniProt Q96Q40)
Sequence (Q96Q40 whole entry): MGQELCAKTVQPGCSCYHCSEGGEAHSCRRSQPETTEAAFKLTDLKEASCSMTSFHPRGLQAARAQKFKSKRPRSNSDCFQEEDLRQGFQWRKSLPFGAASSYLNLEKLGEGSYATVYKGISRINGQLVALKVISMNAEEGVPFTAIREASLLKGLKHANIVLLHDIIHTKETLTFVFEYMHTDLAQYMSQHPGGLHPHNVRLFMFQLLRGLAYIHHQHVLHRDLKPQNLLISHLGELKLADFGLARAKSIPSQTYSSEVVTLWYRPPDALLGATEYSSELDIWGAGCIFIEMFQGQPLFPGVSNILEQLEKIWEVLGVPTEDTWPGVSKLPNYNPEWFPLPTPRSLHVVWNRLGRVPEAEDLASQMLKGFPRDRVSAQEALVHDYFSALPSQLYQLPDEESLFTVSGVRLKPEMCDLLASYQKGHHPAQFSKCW
Sequence (Q8ND76 whole entry partner): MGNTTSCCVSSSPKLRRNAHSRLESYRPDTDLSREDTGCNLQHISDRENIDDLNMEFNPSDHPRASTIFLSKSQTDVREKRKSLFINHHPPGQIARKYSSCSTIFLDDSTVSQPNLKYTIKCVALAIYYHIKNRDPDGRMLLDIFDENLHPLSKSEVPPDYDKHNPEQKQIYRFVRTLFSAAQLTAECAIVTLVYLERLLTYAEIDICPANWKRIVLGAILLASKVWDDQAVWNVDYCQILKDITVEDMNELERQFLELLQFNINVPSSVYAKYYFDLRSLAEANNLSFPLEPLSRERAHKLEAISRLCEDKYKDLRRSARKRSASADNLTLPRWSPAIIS
procedure text: NanoBRET live-cell target engagement, NanoLuc-CDK15/Cyclin Y in HEK-293
Format: binding
protocol conditions: CDK15/Y; 10µM; read-out: Inhibition at 10µM (%) Replicate 1
reported endpoint: inhibition at 10 µM (%)
// note: answer is a bare numeric in %

| compound | inhibition at 10 µM [%] |
| --- | --- |
| CCCCOc1c(C(=O)c2c(F)cc(C)cc2F)c[nH]c2nncc1-2 [BMS-265246] | 51.3 |
| COc1cc(F)ccc1-c1cc(Nc2cc(CS(C)(=N)=O)ccn2)ncc1F (centres unmarked) [BAY-1251152] | 31.9 |
| Cc1ncc(-c2ccnc(Nc3ccc(S(C)(=O)=O)cc3)n2)n1C(C)C [AZD5438] | 69.4 |

Lookup: inhibition at 10 µM / CDK15/Cyclin Y (Homo sapiens, UniProt Q96Q40) / CCN1CCN(Cc2ccc(Nc3ncc(F)c(-c4cc(F)c5nc(C)n(C(C)C)c5c4)n3)nc2)CC1 [Abemaciclib]
57.3

// repeat for COc1cc(F)ccc1-c1ncnc(Nc2cccc(C[S@](C)(=N)=O)c2)n1 [Atuveciclib] and report
2
